Molecular target: Rho-associated protein kinase 2 (Homo sapiens, UniProt O75116)
Sequence (O75116 whole entry, the tested form may be a part): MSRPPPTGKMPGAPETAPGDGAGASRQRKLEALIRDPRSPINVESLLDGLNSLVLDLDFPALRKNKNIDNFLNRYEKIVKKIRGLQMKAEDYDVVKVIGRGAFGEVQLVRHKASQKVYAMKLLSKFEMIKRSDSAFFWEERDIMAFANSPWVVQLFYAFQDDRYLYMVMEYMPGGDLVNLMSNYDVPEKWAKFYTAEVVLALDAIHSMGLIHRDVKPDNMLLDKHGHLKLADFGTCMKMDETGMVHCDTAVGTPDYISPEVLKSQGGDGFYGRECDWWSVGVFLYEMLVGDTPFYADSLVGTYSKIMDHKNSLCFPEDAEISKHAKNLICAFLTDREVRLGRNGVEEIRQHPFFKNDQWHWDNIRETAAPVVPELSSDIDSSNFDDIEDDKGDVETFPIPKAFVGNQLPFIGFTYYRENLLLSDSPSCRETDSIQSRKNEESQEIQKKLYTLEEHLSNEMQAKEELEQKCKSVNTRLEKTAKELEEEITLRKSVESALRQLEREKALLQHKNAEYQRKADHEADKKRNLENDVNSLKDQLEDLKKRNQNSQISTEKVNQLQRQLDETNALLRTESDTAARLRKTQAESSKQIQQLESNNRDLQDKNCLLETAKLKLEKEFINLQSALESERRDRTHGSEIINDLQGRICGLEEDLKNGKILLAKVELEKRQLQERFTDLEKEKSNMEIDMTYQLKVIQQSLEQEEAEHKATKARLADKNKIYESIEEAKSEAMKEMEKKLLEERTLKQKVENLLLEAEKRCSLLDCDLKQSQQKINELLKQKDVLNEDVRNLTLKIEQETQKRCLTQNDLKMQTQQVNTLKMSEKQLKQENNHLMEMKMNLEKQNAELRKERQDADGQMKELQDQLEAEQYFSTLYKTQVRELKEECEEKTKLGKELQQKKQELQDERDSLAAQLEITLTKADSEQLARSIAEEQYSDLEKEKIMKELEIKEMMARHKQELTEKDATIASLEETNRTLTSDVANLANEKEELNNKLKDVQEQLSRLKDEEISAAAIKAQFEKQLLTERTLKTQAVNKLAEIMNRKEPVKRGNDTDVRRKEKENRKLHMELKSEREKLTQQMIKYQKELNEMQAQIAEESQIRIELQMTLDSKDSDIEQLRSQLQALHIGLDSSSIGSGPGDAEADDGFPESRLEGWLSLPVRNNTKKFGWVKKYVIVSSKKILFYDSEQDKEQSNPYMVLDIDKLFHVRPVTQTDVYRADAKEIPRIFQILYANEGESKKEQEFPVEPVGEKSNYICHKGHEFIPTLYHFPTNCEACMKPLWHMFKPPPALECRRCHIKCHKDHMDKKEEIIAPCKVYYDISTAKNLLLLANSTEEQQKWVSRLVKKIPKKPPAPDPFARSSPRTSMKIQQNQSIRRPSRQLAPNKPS
Experiment: Inhibition of recombinant human ROCK2 (11 to 552 residues) using KEAKEKRQEQIAKR as substrate incubated for 40 mins in presence of [gamma-33P]ATP and 10 uM ATP by radiometric scintillation counting analysis
Kindly state IC50 for each of the entries shown.
Answers are plain numbers, in nM.

O=C(COc1ccc2c(=O)ccoc2c1)Nc1cccc(NC(=O)c2ccccc2)c1 = 16
O=C(COc1ccc2c(=O)ccoc2c1)Nc1cccc(NC(=O)c2ccc([N+](=O)[O-])cc2)c1 = 15
CN(C)c1ccc(C(=O)Nc2ccc(NC(=O)COc3ccc4c(=O)ccoc4c3)cc2C(F)(F)F)cc1 = 7100
Cc1ccc(NC(=O)COc2ccc3c(=O)ccoc3c2)cc1NC(=O)c1ccc(N(C)C)cc1 = 169
Cc1cc(NC(=O)COc2ccc3c(=O)ccoc3c2)cc(NC(=O)c2ccc(N(C)C)cc2)c1C = 374

Hey, can you go through the list below and give me IC50 for every item?
1. CCc1ccc(C(=O)Nc2cccc(NC(=O)COc3ccc4c(=O)ccoc4c3)c2)cc1
2. Cc1cc(C(=O)Nc2cccc(NC(=O)COc3ccc4c(=O)ccoc4c3)c2)no1
3. CC(=O)Nc1cccc(NC(=O)COc2ccc3c(=O)ccoc3c2)c1
4. O=C(COc1ccc2c(=O)ccoc2c1)Nc1cccc(NC(=O)c2cccc([N+](=O)[O-])c2)c1

1. 24
2. 5
3. 136
4. 41
